Hello, the source for this data is paper PMC7531004, in case you need it.

system: Streptococcus pyogenes SSI-9; experiment: Antibacterial activity assay of bead-derived peptides (three concentrations); type: cell-based; parameters: key: +++: inhibition by the 640-fold diluted peptide solution; ++: inhibition by the 160-fold diluted solution; +: inhibition by the 40-fold diluted solution; -: no inhibition; details: S. pyogenes, bead-derived peptide solution, three concentrations
Where a SMILES comes first, the peptide text is derived from it. [ ]: non-standard residue; d: D form. The star is where a group is joined. NHCH2CH2OH = OCCN*; For = O=C*
observed property: antibacterial activity

CC(C)C[C@@H](NC(=O)[C@H](C)NC(=O)CNC(=O)[C@@H](NC=O)C(C)C)C(=O)N[C@@H](C)C(=O)N[C@H](CC(C)C)C(=O)N[C@H](C(=O)N[C@@H](C(=O)N[C@@H](Cc1c[nH]c2ccccc12)C(=O)N[C@H](CC(C)C)C(=O)N[C@@H](Cc1c[nH]c2ccccc12)C(=O)N[C@H](CC(C)C)C(=O)N[C@@H](Cc1c[nH]c2ccccc12)C(=O)N[C@@H](C(=O)N[C@@H](Cc1c[nH]c2ccccc12)C(=O)NCCO)C(C)C)[C@H](C)O)C(C)C [compound 11295] (For-VGA[dL]A[dL]V[dT]W[dL]W[dL]W[dV]W-NHCH2CH2OH)
-
CNC(=O)C[C@@H](NC(=O)[C@H](Cc1c[nH]c2ccccc12)NC(=O)[C@H](NC(=O)[C@H](Cc1c[nH]c2ccccc12)NC(=O)[C@H](NC(=O)[C@H](Cc1c[nH]c2ccccc12)NC(=O)[C@H](NC(=O)[C@@H](NC(=O)[C@@H](CC(C)C)NC(=O)[C@H](C)NC(=O)[C@@H](CC(C)C)NC(=O)[C@H](C)NC(=O)CNC(=O)[C@@H](NC=O)C(C)C)C(C)C)C(C)C)C(C)C)C(C)C)C(=O)N[C@@H](Cc1c[nH]c2ccccc12)C(=O)NCCO [compound 10002] (For-VGA[dL]A[dL]V[dV]W[dV]W[dV]W[dD](NHMe)W-NHCH2CH2OH)
-

* * *

system: Streptococcus pyogenes SSI-9; assay: Antibacterial activity assay of bead-derived peptides (three concentrations); format: cell-based; parameters: key: +++: inhibition by the 640-fold diluted peptide solution; ++: inhibition by the 160-fold diluted solution; +: inhibition by the 40-fold diluted solution; -: no inhibition; settings: S. pyogenes, bead-derived peptide solution, three concentrations
Where a SMILES comes first, the peptide text is derived from it. [ ]: non-standard residue; d: D form. The star is where a group is joined. NHCH2CH2OH = OCCN*; For = O=C*
observed property: antibacterial activity

CC(C)C[C@@H](NC(=O)[C@H](Cc1c[nH]c2ccccc12)NC(=O)[C@H](NC(=O)[C@H](Cc1c[nH]c2ccccc12)NC(=O)[C@@H](CC(C)C)NC(=O)[C@H](Cc1c[nH]c2ccccc12)NC(=O)[C@H](NC(=O)[C@@H](NC(=O)[C@H](NC(=O)[C@H](C)NC(=O)[C@H](NC(=O)[C@H](C)NC(=O)CNC(=O)[C@@H](NC=O)C(C)C)C(C)C)C(C)C)C(C)C)C(C)C)[C@H](C)O)C(=O)N[C@@H](Cc1c[nH]c2ccccc12)C(=O)NCCO [compound 521] (For-VGA[dV]A[dV]V[dV]W[dL]W[dT]W[dL]W-NHCH2CH2OH)
+
CC(C)C[C@@H](NC(=O)[C@H](C)NC(=O)CNC(=O)[C@@H](NC=O)C(C)C)C(=O)N[C@@H](C)C(=O)N[C@@H](C(=O)N[C@H](C(=O)N[C@@H](C(=O)N[C@@H](Cc1c[nH]c2ccccc12)C(=O)N[C@@H](C(=O)N[C@@H](Cc1c[nH]c2ccccc12)C(=O)N[C@@H](C(=O)N[C@@H](Cc1c[nH]c2ccccc12)C(=O)N[C@@H](C(=O)N[C@@H](Cc1c[nH]c2ccccc12)C(=O)NCCO)C(C)C)C(C)C)C(C)C)C(C)C)C(C)C)C(C)C [compound 9992] (For-VGA[dL]A[dV]V[dV]W[dV]W[dV]W[dV]W-NHCH2CH2OH)
+
